Data origin: patent US20230257385A1

Experiment: Suspension equilibration of sorbate salt at 20 and 40° C. (Example 10, Experiments 3, 4, 9)
Type: physicochemical
Conditions: sorbate salt Form A in 5 vol solvent, one solvent per sample; 20° C.; t = 1 d
observed_property: Observations (t = 1 d @ 20° C.)

compound: CC=CC=CC(=O)O.COc1ccc2c3c([nH]c2c1)CCN(C)CC3 [Experiment 3-Sample R]
value: Suspension
//
compound: C/C=C/C=C/C(=O)O.COc1ccc2c3c([nH]c2c1)CCN(C)CC3 [Experiment 3-Sample C]
value: Suspension
//
compound: CC=CC=CC(=O)O.COc1ccc2c3c([nH]c2c1)CCN(C)CC3 [Experiment 3-Sample N]
value: Suspension
//
compound: CC=CC=CC(=O)O.COc1ccc2c3c([nH]c2c1)CCN(C)CC3 [Experiment 3-Sample O]
value: Suspension
//
compound: CC=CC=CC(=O)O.COc1ccc2c3c([nH]c2c1)CCN(C)CC3 [Experiment 3-Sample F]
value: Suspension
